# Condition Parameters: in DMSO, 357.6 K
Parameter: solubility (mole fraction)
One number for each entry.

Ask: # solubility (mole fraction) lookup, item COC1=CC(=O)C[C@@H](C)[C@]12Oc1c(Cl)c(OC)cc(OC)c1C2=O
Reply: 0.0415

====

# Condition Parameters: in acetone, 296.4 K
Parameter: solubility (mole fraction)
Give bare numbers.

Ask: # solubility (mole fraction) lookup, item COC1=CC(=O)C[C@@H](C)[C@]12Oc1c(Cl)c(OC)cc(OC)c1C2=O
Reply: 0.00853

====

# Condition Parameters: in NMP, 300.65 K
Parameter: solubility (mole fraction)
One number for each entry.

Ask: # solubility (mole fraction) lookup, item COC1=CC(=O)C[C@@H](C)[C@]12Oc1c(Cl)c(OC)cc(OC)c1C2=O
Reply: 0.0451

====

# Condition Parameters: in DMSO, 315.55 K
Parameter: solubility (mole fraction)
Numbers only.

Ask: # solubility (mole fraction) lookup, item COC1=CC(=O)C[C@@H](C)[C@]12Oc1c(Cl)c(OC)cc(OC)c1C2=O
Reply: 0.0239

====

# Condition Parameters: in DMAc, 301.25 K
Parameter: solubility (mole fraction)
Answers are plain numbers.

Ask: # solubility (mole fraction) lookup, item COC1=CC(=O)C[C@@H](C)[C@]12Oc1c(Cl)c(OC)cc(OC)c1C2=O
Reply: 0.0276

====

# Condition Parameters: in acetone, 281.95 K
Parameter: solubility (mole fraction)

Ask: # solubility (mole fraction) lookup, item COC1=CC(=O)C[C@@H](C)[C@]12Oc1c(Cl)c(OC)cc(OC)c1C2=O
Reply: 0.00648

====

# Condition Parameters: in 2-butanone, 308.25 K
Parameter: solubility (mole fraction)

Ask: # solubility (mole fraction) lookup, item COC1=CC(=O)C[C@@H](C)[C@]12Oc1c(Cl)c(OC)cc(OC)c1C2=O
Reply: 0.0117

====

# Condition Parameters: in 1,2-dichloroethane, 305.55 K
Parameter: solubility (mole fraction)
Answers are plain numbers.

Ask: # solubility (mole fraction) lookup, item COC1=CC(=O)C[C@@H](C)[C@]12Oc1c(Cl)c(OC)cc(OC)c1C2=O
Reply: 0.0236

====

# Condition Parameters: in 1,2-dichloroethane, 294.3 K
Parameter: solubility (mole fraction)

Ask: # solubility (mole fraction) lookup, item COC1=CC(=O)C[C@@H](C)[C@]12Oc1c(Cl)c(OC)cc(OC)c1C2=O
Reply: 0.0209

====

# Condition Parameters: in DMAc, 350.55 K
Parameter: solubility (mole fraction)
Answers are plain numbers.

Ask: # solubility (mole fraction) lookup, item COC1=CC(=O)C[C@@H](C)[C@]12Oc1c(Cl)c(OC)cc(OC)c1C2=O
Reply: 0.0549

====

# Condition Parameters: in DMSO, 336.75 K
Parameter: solubility (mole fraction)
Give bare numbers.

Ask: # solubility (mole fraction) lookup, item COC1=CC(=O)C[C@@H](C)[C@]12Oc1c(Cl)c(OC)cc(OC)c1C2=O
Reply: 0.0324

====

# Condition Parameters: in DMSO, 296.75 K
Parameter: solubility (mole fraction)

Ask: # solubility (mole fraction) lookup, item COC1=CC(=O)C[C@@H](C)[C@]12Oc1c(Cl)c(OC)cc(OC)c1C2=O
Reply: 0.0167

====

# Condition Parameters: in 1,2-dichloroethane, 290.05 K
Parameter: solubility (mole fraction)
Numbers only.

Ask: # solubility (mole fraction) lookup, item COC1=CC(=O)C[C@@H](C)[C@]12Oc1c(Cl)c(OC)cc(OC)c1C2=O
Reply: 0.0197

====

# Condition Parameters: in DMSO, 341.05 K
Parameter: solubility (mole fraction)
Give bare numbers.

Ask: # solubility (mole fraction) lookup, item COC1=CC(=O)C[C@@H](C)[C@]12Oc1c(Cl)c(OC)cc(OC)c1C2=O
Reply: 0.0345

====

# Condition Parameters: in acetone, 313.65 K
Parameter: solubility (mole fraction)

Ask: # solubility (mole fraction) lookup, item COC1=CC(=O)C[C@@H](C)[C@]12Oc1c(Cl)c(OC)cc(OC)c1C2=O
Reply: 0.0129

====

# Condition Parameters: in 1,2-dichloroethane, 300.25 K
Parameter: solubility (mole fraction)
Numbers only.

Ask: # solubility (mole fraction) lookup, item COC1=CC(=O)C[C@@H](C)[C@]12Oc1c(Cl)c(OC)cc(OC)c1C2=O
Reply: 0.0222

====

# Condition Parameters: in DMSO, 346.25 K
Parameter: solubility (mole fraction)
Answers are plain numbers.

Ask: # solubility (mole fraction) lookup, item COC1=CC(=O)C[C@@H](C)[C@]12Oc1c(Cl)c(OC)cc(OC)c1C2=O
Reply: 0.0368

====

# Condition Parameters: in NMP, 325.45 K
Parameter: solubility (mole fraction)

Ask: # solubility (mole fraction) lookup, item COC1=CC(=O)C[C@@H](C)[C@]12Oc1c(Cl)c(OC)cc(OC)c1C2=O
Reply: 0.0601

====

# Condition Parameters: in DMAc, 310.75 K
Parameter: solubility (mole fraction)
Numbers only.

Ask: # solubility (mole fraction) lookup, item COC1=CC(=O)C[C@@H](C)[C@]12Oc1c(Cl)c(OC)cc(OC)c1C2=O
Reply: 0.0326

====

# Condition Parameters: in DMAc, 354.78 K
Parameter: solubility (mole fraction)

Ask: # solubility (mole fraction) lookup, item COC1=CC(=O)C[C@@H](C)[C@]12Oc1c(Cl)c(OC)cc(OC)c1C2=O
Reply: 0.0582

====

# Condition Parameters: in DMSO, 331.95 K
Parameter: solubility (mole fraction)
Numbers only.

Ask: # solubility (mole fraction) lookup, item COC1=CC(=O)C[C@@H](C)[C@]12Oc1c(Cl)c(OC)cc(OC)c1C2=O
Reply: 0.0302

====

# Condition Parameters: in 1,2-dichloroethane, 329.65 K
Parameter: solubility (mole fraction)
Give bare numbers.

Ask: # solubility (mole fraction) lookup, item COC1=CC(=O)C[C@@H](C)[C@]12Oc1c(Cl)c(OC)cc(OC)c1C2=O
Reply: 0.0335

====

# Condition Parameters: in NMP, 335.55 K
Parameter: solubility (mole fraction)

Ask: # solubility (mole fraction) lookup, item COC1=CC(=O)C[C@@H](C)[C@]12Oc1c(Cl)c(OC)cc(OC)c1C2=O
Reply: 0.0666

====

# Condition Parameters: in DMAc, 296.2 K
Parameter: solubility (mole fraction)
Give bare numbers.

Ask: # solubility (mole fraction) lookup, item COC1=CC(=O)C[C@@H](C)[C@]12Oc1c(Cl)c(OC)cc(OC)c1C2=O
Reply: 0.0252

====

# Condition Parameters: in NMP, 350.35 K
Parameter: solubility (mole fraction)
Numbers only.

Ask: # solubility (mole fraction) lookup, item COC1=CC(=O)C[C@@H](C)[C@]12Oc1c(Cl)c(OC)cc(OC)c1C2=O
Reply: 0.0795

====

# Condition Parameters: in NMP, 330.45 K
Parameter: solubility (mole fraction)

Ask: # solubility (mole fraction) lookup, item COC1=CC(=O)C[C@@H](C)[C@]12Oc1c(Cl)c(OC)cc(OC)c1C2=O
Reply: 0.0631

====

# Condition Parameters: in NMP, 295.55 K
Parameter: solubility (mole fraction)
One number for each entry.

Ask: # solubility (mole fraction) lookup, item COC1=CC(=O)C[C@@H](C)[C@]12Oc1c(Cl)c(OC)cc(OC)c1C2=O
Reply: 0.0421

====

# Condition Parameters: in DMAc, 314.95 K
Parameter: solubility (mole fraction)
Give bare numbers.

Ask: # solubility (mole fraction) lookup, item COC1=CC(=O)C[C@@H](C)[C@]12Oc1c(Cl)c(OC)cc(OC)c1C2=O
Reply: 0.0344

====

# Condition Parameters: in DMSO, 306.15 K
Parameter: solubility (mole fraction)
One number for each entry.

Ask: # solubility (mole fraction) lookup, item COC1=CC(=O)C[C@@H](C)[C@]12Oc1c(Cl)c(OC)cc(OC)c1C2=O
Reply: 0.0204

====

# Condition Parameters: in DMAc, 305.75 K
Parameter: solubility (mole fraction)
Answers are plain numbers.

Ask: # solubility (mole fraction) lookup, item COC1=CC(=O)C[C@@H](C)[C@]12Oc1c(Cl)c(OC)cc(OC)c1C2=O
Reply: 0.0303

====

# Condition Parameters: in NMP, 305.75 K
Parameter: solubility (mole fraction)
Give bare numbers.

Ask: # solubility (mole fraction) lookup, item COC1=CC(=O)C[C@@H](C)[C@]12Oc1c(Cl)c(OC)cc(OC)c1C2=O
Reply: 0.048

====

# Condition Parameters: in DMAc, 330.05 K
Parameter: solubility (mole fraction)
Answers are plain numbers.

Ask: # solubility (mole fraction) lookup, item COC1=CC(=O)C[C@@H](C)[C@]12Oc1c(Cl)c(OC)cc(OC)c1C2=O
Reply: 0.0422

====

# Condition Parameters: in DMSO, 351.7 K
Parameter: solubility (mole fraction)

Ask: # solubility (mole fraction) lookup, item COC1=CC(=O)C[C@@H](C)[C@]12Oc1c(Cl)c(OC)cc(OC)c1C2=O
Reply: 0.0393
